Target: Syk kinase (Homo sapiens, UniProt P43405)
Experiment: Syk kinase biochemical fluorescence polarization assay
Settings: isolated Syk kinase, fluorescence polarization, 4 uM ATP
Reported IC50 by item:

Worked cases, answers included:
* CC1(C)Oc2ccc(Nc3nc(Nc4ccc(Cl)c(Cl)c4)ncc3F)nc2NC1=O | > 10 µM
* CCOC(=O)c1cnc(Nc2ccc3c(c2)OCCO3)nc1Nc1ccc2c(c1)OCCO2 | > 10 µM
* CCOC(=O)c1cnc(Nc2ccc(OCC(=O)N3CCCC3)cc2)nc1Nc1ccc(OCC(=O)N2CCCC2)cc1 | > 10 µM

Please look at the following molecule next.
Problem: Name the reported IC50 value associated with the molecule "CCN(C(C)=O)c1ccc(Nc2ncc(F)c(Nc3ccc4c(n3)NC(=O)C(C)(C)O4)n2)cc1"
Solution: > 10 µM
